Where do these numbers come from? They come from PubChem BioAssay AID1159580.

- experiment.summary: chemical genetic growth profiling, strain panel (AID 1159580);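 also: tested at 20 µM; growth read once vehicle control cultures reached saturation at 30 °C; lower values mean less growth of the strain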
- details: S. cerevisiae deletion strains, growth OD, locus YNL153C, strain GIM3
Out of some 5,500 compounds screened, about 2,000 (36%) were called active. About 18% were inconclusive and are not listed. Rule as the data show it: active = normalized growth mostly below about 0.91 (no sharp cut-off); inconclusive = no clear call, values can overlap the other calls; inactive = mostly above about 0.92. The list shows a part of the results.
Result category, one only: yes (active), no (inactive)

stdin: Record lookup: outcome of this test for "O=C(O[C@@H]1Cc2c(O)cc(O)cc2O[C@@H]1c1cc(O)c(O)c(O)c1)c1cc(O)c(O)c(O)c1" ?
stdout: yes

stdin: Another compound to look at: "CC(C)NC[C@H](O)COc1cccc2[nH]ccc12"
stdout: no

stdin: Another compound to look at: "CN(C)C=Nc1ncccc1OCc1ccc(Cl)c(Cl)c1"
stdout: no

stdin: Another compound to look at: "CCn1cc(C(=O)O)c(=O)c2cc(F)c(N3CCNCC3)nc21"
stdout: no

stdin: Another compound to look at: CN1C2CCC1CC(OC(c1ccccc1)c1ccccc1N)C2 (stereo not drawn)
stdout: no

stdin: Another compound to look at: CC1(C)CCC[C@@]2(C)C1[C@@H](O)C[C@]1(C)C2CC[C@@H]2[C@@]3(C)CC[C@H](C(C)(C)O)[C@@H]3CC[C@@]21C (stereo partly drawn)
stdout: no

stdin: Another compound to look at: "c1ccc(OCCOc2ccccn2)nc1"
stdout: no

stdin: Another compound to look at: CN1C2CCC1CC(OC(=O)c1c[nH]c3ccccc13)C2 (stereo not drawn)
stdout: no

stdin: Another compound to look at: "O=C(NNC(=S)Nc1cccc(Cl)c1)c1ccncc1"
stdout: no

stdin: Another compound to look at: C[C@]12CCC(=O)C=C1C=CC1C2CC[C@@]2(C)C1CC[C@@]21CCC(=O)O1 (stereo partly drawn)
stdout: no

stdin: Another compound to look at: "O=[N+]([O-])c1ccc(OCCO)c([N+](=O)[O-])c1"
stdout: no

stdin: Another compound to look at: "CC[N+](CC)(CC)CC"
stdout: no

stdin: Another compound to look at: "CC(C)(C)S(=O)(=O)/C(C#N)=C/c1ccc(F)cc1F"
stdout: no

stdin: Another compound to look at: O=C1CCC(N2C(=O)c3ccccc3C2=O)C(=O)N1 (stereo not drawn)
stdout: no
